In this section, each of the compounds is paired with its reported IC50.
subjectOfTest: UniProt O95749
Sequence (O95749 whole entry): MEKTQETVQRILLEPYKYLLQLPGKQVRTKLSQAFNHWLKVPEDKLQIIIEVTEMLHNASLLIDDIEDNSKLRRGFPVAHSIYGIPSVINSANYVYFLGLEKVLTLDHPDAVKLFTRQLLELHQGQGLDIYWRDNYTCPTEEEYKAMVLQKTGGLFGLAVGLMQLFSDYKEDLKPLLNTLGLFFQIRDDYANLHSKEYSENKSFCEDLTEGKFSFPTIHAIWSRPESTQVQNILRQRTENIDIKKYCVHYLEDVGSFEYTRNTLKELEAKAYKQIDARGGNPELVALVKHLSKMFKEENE
methodSummary: GGPP Synthase Inhibition Assay
testContext: pH 7; 37 °C
Procedure: The inhibitory activity of each test compound was evaluated by monitoring the formation of [14C]GGPP from FPP, using [14C]IPP as the substrate. To confirm the formation of radioactive products, one-dimensional thin-layer chromatography (TLC), with autoradiographic detection of [14C]FPP/[14C]GGPP, was used.
Include the unit after the number when you answer.

[[record]]
compound = "CCCCCCCCc1ccc[n+](CC(O)(P(=O)([O-])O)P(=O)(O)O)c1 (configuration not stated)"
testvalue = "1.38 µM"


Here is another compound to look at.
stdin: Dear colleague, I am looking for the recorded IC50 of the following compound: "CCCCCCCCCC(O)(P(=O)(O)O)P(=O)(O)O"
stdout: 0.89 µM

Each recorded value in this set is attributed to BindingDB's records for doi:10.1021/jm800325y.
